system: CCRF-CEM leukemia; assay: NCI tumour cell line growth inhibition, 48 h
Entries and their TGI values follow.

| compound | TGI |
| --- | --- |
| O=C(c1ccccc1)N1CCN2CCN=C(c3ccccc3)C21c1ccccc1 (configuration not stated) | > 100 µM |
| Cc1cc(=O)oc2cc(OCc3nc4ccccc4c(=O)n3-c3ccccc3)ccc12 | > 100 µM |
| N#Cc1ccccc1NC(=O)/C(=N\Nc1ccc([N+](=O)[O-])cc1)C1C(=O)NC(=O)NC1=O | > 100 µM |
| CC(=O)/C=C/c1ccc(OCc2ccc(C(C)(C)C)cc2)cc1 | > 1000 µM |
| COC(=O)/C(=N\NC(=O)c1ccccc1O)C(C#N)c1ccccc1 (configuration not stated) | > 50 µM |
| COc1cccc(/C=N/[N-]C(=O)c2ccncc2)c1[O-].[Ni+2].[OH3+] | > 100 µM |
| CCn1cc(C(=O)O)c(=O)c2cc(F)c(N3CCN(CN4C(=O)/C(=N\c5ncc(Cc6cc(OC)c(OC)c(OC)c6)c(N)n5)c5cc(Cl)ccc54)CC3)cc21 | > 100 µM |
| CC(C)OC(=O)[C@@H]1OC(C)(C)O[C@H]1C(=O)OC(C)C | > 100 µM |
| COc1cc2c(cc1OC)C1[C@@H](c3ccccc3)OCN1CC2 (some centres not stated) | > 100 µM |
| O=C(CCc1n[nH]c(=S)o1)Nc1ccc(Cl)cc1Cl | > 100 µM |
| Cc1ccc(O)c(-c2cc(-c3cccc(Br)c3)on2)c1 | > 100 µM |
| CC1=CC(C)(C)[C@H]2O[C@@]3(O)C[C@]4(C)[C@H]5C[C@@](C(C)C)(O[C@H]4c4ccoc4)O[C@H]4[C@]5(C3)O[C@@]1(O)[C@]24O | > 100 µM |
| COC(=O)[C@@H](C)C[C@H](Cc1ccc2ccccc2c1)NC(=O)c1csc([C@@H](C[C@H](C(C)C)N(C)C(=O)[C@@H](NC(=O)[C@H]2CCCCN2C)C(C)C)OC(C)=O)n1 | > 25 µM |
| Cc1ccc(-n2c(=O)c3nn4c(=O)n(-c5ccc(C)cc5)c(=O)c4nn3c2=O)cc1 | > 100 µM |
| CC(=O)NCCC1CNc2ccccc21 (configuration not stated) | > 100 µM |
| CCOC(=O)C(/C=N\C(=S)Nc1c(CC)cccc1C(C)(C)C)=C(/O)c1ccccc1 | > 100 µM |
| NC(=S)N/N=C1\CCCCc2ccccc21 | > 10 µM |
| COc1ccc(/C=C/C(=O)c2cc3c(N)c(C(=O)Nc4cccc(Cl)c4C)sc3nc2C)cc1 | > 35.3 µM |
| CC(N)Cc1ccc(F)cc1 (configuration not stated) | > 100 µM |
| COC(=O)/C=C/C1C2C3(CCC(C)C12C)OCCS3 (configuration not stated) | > 100 µM |
| CC1=NC(C)(C)[N+]([O-])=C1 | > 10 µM |
| C/C(=C\COc1cc(O)c2c(c1)C(=O)c1cc(C)cc(O)c1C2=O)CCC1OC1(C)C (configuration not stated) | > 100 µM |

* * *

system: SNB-19 CNS; assay: NCI tumour cell line growth inhibition, 48 h
observable: TGI

| compound | observable | observed |
| --- | --- | --- |
| CN(CCCCCl)P(=O)(OCC1=CC(=O)c2ccccc2C1=O)OC[C@H]1O[C@@H](n2cc(F)c(=O)[nH]c2=O)C[C@@H]1O (stereo partly specified) | TGI | > 40.6 µM |
| COc1cc2c3c(n(CCCNCCNCCN)c(=O)c2cc1OC)-c1cc2c(cc1C3=O)OCO2 | TGI | > 100 µM |
| CCN(CC)CCNc1ccc2nnn3c4ccc([N+](=O)[O-])cc4c(=O)c1c23 | TGI | > 100 µM |
| CCOC(=O)C1C(O)CC2c3ccccc3-c3ccccc3C21 (stereo unspecified) | TGI | > 100 µM |
| O=c1c(Cc2c(O)ccc3ccccc23)nnc2sc(-c3nn4c(=O)c(Cc5c(O)ccc6ccccc56)nnc4s3)nn12 | TGI | > 100 µM |
| CC(C)(C)OC(=O)NCCc1ccc(N)cc1 | TGI | > 100 µM |

Origin of values: PubChem BioAssay (NCI)
